src = patent US20230278983A1

Please go through the items and note down their IC50.
Biological target: CK2 (Homo sapiens (Human), UniProt P68400)
Sequence (P68400 whole entry): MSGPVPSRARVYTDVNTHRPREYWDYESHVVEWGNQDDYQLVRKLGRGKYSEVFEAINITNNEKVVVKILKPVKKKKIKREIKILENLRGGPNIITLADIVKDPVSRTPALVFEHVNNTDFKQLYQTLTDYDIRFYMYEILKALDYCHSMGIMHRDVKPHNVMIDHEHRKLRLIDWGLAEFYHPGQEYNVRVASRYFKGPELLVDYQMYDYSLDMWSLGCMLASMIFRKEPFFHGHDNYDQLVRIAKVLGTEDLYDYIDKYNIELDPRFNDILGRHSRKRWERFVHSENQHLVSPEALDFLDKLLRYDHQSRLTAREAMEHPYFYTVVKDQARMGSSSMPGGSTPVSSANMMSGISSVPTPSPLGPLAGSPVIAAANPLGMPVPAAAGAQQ
Experiment: Radiometric CK2 kinase assay
Type: biochemical
One number for each entry, in nM.

Previously resolved entries follow.
- CC(=O)c1[nH]c2ccc(F)cc2c1-c1cn(CC2CCN(CCNS(=O)(=O)c3ccc(-c4ccccc4O)cc3)CC2)nn1: 49
- CCc1ccc(S(=O)(=O)NCCN2CCC(Cn3cc(-c4c(C(=O)OCC(C)C)[nH]c5ccc(F)cc45)nn3)CC2)cc1: 170
- CC(=O)c1[nH]c2ccc(F)cc2c1-c1cn(CC2CCN(CCNS(=O)(=O)c3ccc(CC(C)C)cc3)CC2)nn1: 48

Can you give me IC50 for all of these, one by one?
1. CC(C)COC(=O)c1[nH]c2ccc(F)cc2c1-c1cn(CC2CCN(CCNS(=O)(=O)c3ccc(C(C)(C)C)cc3)CC2)nn1
2. CC(C)COC(=O)c1[nH]c2ccc(F)cc2c1-c1cn(CC2CCN(CCNS(=O)(=O)c3ccc(-c4c(F)cccc4F)cc3)CC2)nn1
3. CC(C)COC(=O)c1[nH]c2ccc(F)cc2c1-c1cn(CC2CCN(CCNS(=O)(=O)c3ccc4ccccc4c3)CC2)nn1
4. CCOC(=O)c1[nH]c2ccc(Cl)cc2c1-c1cn(CC2CCN(CCNS(=O)(=O)c3ccc4ccccc4c3)CC2)nn1

1. 52
2. 45
3. 510
4. 1780
